Molecular target: PIP4K 2A (Homo sapiens, UniProt P48426)
Experiment: Kinase Assay PIP4K2 A (PIP4KtypeIIA inhibition assay)
Type: biochemical
Design: made in house; host or cells: E. coli
Conditions: compounds listed under IC50 bin headings
VALUE KIND: IC50

Field: example entries. Status: answers known.
CN(C)C(=O)c1ccc2c(c1)OC(C1CC1)c1cc(Nc3cnc4c(c3)N3C(=O)CC[C@H]3CO4)ncc1-2 (some centres unmarked) = ≤ 1 nM
CC1c2cc(Nc3cccnc3)ncc2-c2ccc(N3CCCC3=O)cc2N1C (centres unmarked) = 10 to 100 nM
CC1Oc2cc(N3CCCC3=O)ccc2-c2cnc(Nc3cncc(N4CCN(Cc5cscn5)C4=O)c3)cc21 (centres unmarked) = ≤ 1 nM
CC1Oc2cc(N3CCCC3=O)ccc2-c2cnc(Nc3cnc4c(c3)N(C(=O)C(C)(C)O)CCO4)cc21 (centres unmarked) = ≤ 1 nM
CC1Oc2cc(C(=O)N(C)C)ccc2-c2cnc(Nc3cnc4c(c3)N(C(=O)C3CC3)CCO4)cc21 (centres unmarked) = ≤ 1 nM
CC1Oc2cc(N3CCCC3=O)ccc2-c2cnc(Nc3cnc4cccnc4c3)cc21 (centres unmarked) = 1 to 10 nM

So what does the record say about IC50 for `CC1(C)Oc2cc(N3CCCC3=O)c(F)cc2-c2cnc(Nc3cnc4c(c3)OCCO4)cc21` ? ≤ 1 nM

Look at this molecule and give its reported IC50. COc1ncc(Nc2cc3c(cn2)-c2ccc(N4CCCC4=O)cc2OC3C)cc1N(C)C(C)=O (centres unmarked) 100 to 1000 nM

----------
Biological target: PIP4K 2A (Homo sapiens)
Test: ADP-glo kinase assay PIP4K 2A
Assay type: biochemical
Set-up: 4 nM PIP4K2A (full length protein, SignalChem); purchased SignalChem
Details: compounds listed under IC50 bin headings
pIC50: −log10 of the molar value.
Entries annotated with measured pIC50

CC1Oc2cc(N3CCCC3=O)ccc2-c2cnc(Nc3cncc(NC(=O)C4Cc5ccccc5O4)c3)cc21 (stereo not shown) = 7.00 to 8.00
CC1Oc2cc(N3CCCC3=O)ccc2-c2cnc(Nc3cncc(NC(=O)c4ccc5c(c4)B(O)OC5)c3)cc21 (stereo not shown) = 8.00 to 9.00
CC1Oc2cc(N3CCCC3=O)ccc2-c2cnc(Nc3cncc(NC(=O)c4cn5ccccc5n4)c3)cc21 (stereo not shown) = 8.00 to 9.00

Continue with the compound presented below.
// pIC50 lookup, key: CC1Oc2cc(N3CCCC3=O)c(F)cc2-c2cnc(Nc3cnc4c(c3)N3C(=O)C(C)(C)C[C@H]3CO4)cc21 (stereo partly shown) ≥ 9.00

----------
Biological target: UniProtKB P48426
Sequence (P48426 1-406): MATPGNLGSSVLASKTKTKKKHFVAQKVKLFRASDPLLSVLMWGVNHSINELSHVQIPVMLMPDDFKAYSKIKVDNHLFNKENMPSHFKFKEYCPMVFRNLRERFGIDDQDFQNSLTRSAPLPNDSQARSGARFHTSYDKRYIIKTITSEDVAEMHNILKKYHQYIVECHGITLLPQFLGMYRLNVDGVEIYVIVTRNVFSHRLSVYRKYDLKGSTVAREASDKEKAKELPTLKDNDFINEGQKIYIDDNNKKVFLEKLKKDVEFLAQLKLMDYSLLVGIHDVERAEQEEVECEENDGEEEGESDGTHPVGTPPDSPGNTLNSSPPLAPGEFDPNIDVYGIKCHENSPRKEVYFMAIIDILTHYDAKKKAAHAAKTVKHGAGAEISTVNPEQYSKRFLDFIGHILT
Experiment: ADP-glo kinase assay PIP4K 2A
Assay type: biochemical
Design: 4 nM PIP4K2A (full length protein, SignalChem); purchased SignalChem
Details: compounds listed under IC50 bin headings
pIC50: −log10 of the molar value.
A collection of compounds and their measured pIC50

Illustrative cases are given below, each with its answer.
CC1Oc2cc(N3CCCC3=O)ccc2-c2cnc(Nc3cncc(N4CCN(Cc5cccc(NC(=O)CNC(=O)/C=C/CN(C)C)c5)C4=O)c3)cc21 (stereo not shown) [Example 178] = ≥ 9.00
CC1Oc2cc(N3CCCC3=O)ccc2-c2cnc(Nc3cncc(N4CCOCC4)c3)cc21 (stereo not shown) [Example 96] = 8.00 to 9.00
CC1Oc2cc(N3CCCC3=O)ccc2-c2cnc(Nc3cncc(NC(=O)C(O)Cc4ccccc4)c3)cc21 (stereo not shown) [Example 134] = 8.00 to 9.00

I would be grateful if you could share the reported pIC50 for CC1Oc2cc(N3CCCC3=O)ccc2-c2cnc(Nc3cncc(NC(=O)c4cnn5ccccc45)c3)cc21 (stereo not shown) [Example 144] . ≥ 9.00
